Test: Influencing factors test (physical and chemical stability) of canagliflozin crystal forms, Test Example 2
Type: physicochemical
Settings: Directly exposed at 60° C. for 10 days

[
  {
    "molecule": "Cc1ccc([C@@H]2O[C@H](CO)[C@@H](O)[C@H](O)[C@H]2O)cc1Cc1ccc(-c2ccc(F)cc2)s1.O [canagliflozin hemihydrate]",
    "display-unit": "%",
    "Total content of impurities": 0.05
  },
  {
    "molecule": "CNCC(=O)O.Cc1ccc([C@@H]2O[C@H](CO)[C@@H](O)[C@H](O)[C@H]2O)cc1Cc1ccc(-c2ccc(F)cc2)s1",
    "display-unit": "%",
    "Total content of impurities": 0.03
  }
]

---

Assay: physchem
Conditions: phosphate buffer, 25 °C, pH 6.8, aqueous buffer, thermodynamic from solid

[
  {
    "entry-smiles": "CCOc1ccc(Cc2cc([C@@H]3O[C@H](CO)[C@@H](O)[C@H](O)[C@H]3O)ccc2Cl)cc1",
    "solubility at 24 h": "1580 µg/mL"
  }
]

---

// reported Total content of impurities for each item listed
Assay: Influencing factors test (physical and chemical stability) of canagliflozin crystal forms, Test Example 2
Type: physicochemical
Settings: Directly exposed at 5000 LX for 10 days
outcome-measure: Total content of impurities (%)

[
  {
    "compound": "Cc1ccc([C@@H]2O[C@H](CO)[C@@H](O)[C@H](O)[C@H]2O)cc1Cc1ccc(-c2ccc(F)cc2)s1.O [canagliflozin hemihydrate]",
    "reported-measurement": 0.08
  },
  {
    "compound": "CNCC(=O)O.Cc1ccc([C@@H]2O[C@H](CO)[C@@H](O)[C@H](O)[C@H]2O)cc1Cc1ccc(-c2ccc(F)cc2)s1",
    "reported-measurement": 0.09
  }
]

---

Test: physchem
Conditions: artificial intestinal juice, 25 °C, fassgf or other biorelevant, thermodynamic from solid

[
  {
    "entry-smiles": "CCOc1ccc(Cc2cc([C@@H]3O[C@H](CO)[C@@H](O)[C@H](O)[C@H]3O)ccc2Cl)cc1",
    "display-unit": "µg/mL",
    "solubility at 12 h": 1400
  }
]

---

Assay: physchem
Details: citrate buffer of pH 3.0, 25 °C, pH 3, aqueous buffer, thermodynamic from solid
outcome-measure: solubility at 24 h

[
  {
    "entry-smiles": "CCOc1ccc(Cc2cc([C@@H]3O[C@H](CO)[C@@H](O)[C@H](O)[C@H]3O)ccc2Cl)cc1",
    "reported-measurement": "1610 µg/mL"
  }
]

---

Experiment: physchem
Conditions: artificial gastric juice, 25 °C, simulated gastric fluid, thermodynamic from solid
outcome-measure: solubility at 24 h (µg/mL)

[
  {
    "entry-smiles": "CCOc1ccc(Cc2cc([C@@H]3O[C@H](CO)[C@@H](O)[C@H](O)[C@H]3O)ccc2Cl)cc1",
    "outcome-measure": "solubility at 24 h",
    "reported-measurement": 1550
  }
]

---

Test: physchem
Conditions: hydrochloric acid of pH 1.0, 25 °C, pH 1, simulated gastric fluid, thermodynamic from solid

[
  {
    "entry-smiles": "CCOc1ccc(Cc2cc([C@@H]3O[C@H](CO)[C@@H](O)[C@H](O)[C@H]3O)ccc2Cl)cc1",
    "solubility at 12 h [µg/mL]": 1600
  }
]

---

Test: physchem
Conditions: aqueous media of different pH, 25 °C, aqueous buffer, thermodynamic from solid

[
  {
    "entry-smiles": "CCOc1ccc(Cc2cc([C@@H]3O[C@H](CO)[C@@H](O)[C@H](O)[C@H]3O)ccc2Cl)cc1",
    "Solubility": "1400 to 1600 µg/mL"
  }
]

---

Assay: Influencing factors test (physical and chemical stability) of canagliflozin crystal forms, Test Example 2
Assay type: physicochemical
Settings: 0 day
// reported Total content of impurities for each item listed

[
  {
    "compound": "Cc1ccc([C@@H]2O[C@H](CO)[C@@H](O)[C@H](O)[C@H]2O)cc1Cc1ccc(-c2ccc(F)cc2)s1.O [canagliflozin hemihydrate]",
    "display-unit": "%",
    "Total content of impurities": 0.06
  },
  {
    "compound": "CNCC(=O)O.Cc1ccc([C@@H]2O[C@H](CO)[C@@H](O)[C@H](O)[C@H]2O)cc1Cc1ccc(-c2ccc(F)cc2)s1",
    "display-unit": "%",
    "Total content of impurities": 0.03
  }
]

---

Assay: Influencing factors test (physical and chemical stability) of canagliflozin crystal forms, Test Example 2
Assay type: physicochemical
Conditions: Directly exposed at RH75% for 10 days
// reported Total content of impurities for each item listed
outcome-measure: Total content of impurities (%)

[
  {
    "compound": "Cc1ccc([C@@H]2O[C@H](CO)[C@@H](O)[C@H](O)[C@H]2O)cc1Cc1ccc(-c2ccc(F)cc2)s1.O [canagliflozin hemihydrate]",
    "outcome-measure": "Total content of impurities",
    "reported-measurement": 0.07
  },
  {
    "compound": "CNCC(=O)O.Cc1ccc([C@@H]2O[C@H](CO)[C@@H](O)[C@H](O)[C@H]2O)cc1Cc1ccc(-c2ccc(F)cc2)s1",
    "outcome-measure": "Total content of impurities",
    "reported-measurement": 0.03
  }
]

---

Test: physchem
Conditions: hydrochloric acid of pH 1.0, 25 °C, pH 1, simulated gastric fluid, thermodynamic from solid
outcome-measure: solubility at 24 h (µg/mL)

[
  {
    "molecule": "CCOc1ccc(Cc2cc([C@@H]3O[C@H](CO)[C@@H](O)[C@H](O)[C@H]3O)ccc2Cl)cc1 [dapagliflozin-sarcosine cocrystal]",
    "outcome-measure": "solubility at 24 h",
    "reported-measurement": 1560
  }
]

---

Experiment: physchem
Details: acetate buffer of pH 4.0, 25 °C, pH 4, aqueous buffer, thermodynamic from solid
outcome-measure: solubility at 12 h

[
  {
    "molecule": "CCOc1ccc(Cc2cc([C@@H]3O[C@H](CO)[C@@H](O)[C@H](O)[C@H]3O)ccc2Cl)cc1 [dapagliflozin-sarcosine cocrystal]",
    "outcome-measure": "solubility at 12 h",
    "reported-measurement": "1640 µg/mL"
  }
]

---

Test: physchem
Details: acetate buffer, 25 °C, pH 4, aqueous buffer, thermodynamic from solid
outcome-measure: solubility at 24 h (µg/mL)

[
  {
    "compound": "CCOc1ccc(Cc2cc([C@@H]3O[C@H](CO)[C@@H](O)[C@H](O)[C@H]3O)ccc2Cl)cc1 [dapagliflozin-sarcosine cocrystal]",
    "reported-measurement": 1620
  }
]

---

Experiment: physchem
Settings: citrate buffer of pH 3.0, 25 °C, pH 3, aqueous buffer, thermodynamic from solid
outcome-measure: solubility at 12 h (mg/mL)

[
  {
    "compound": "CCOc1ccc(Cc2cc([C@@H]3O[C@H](CO)[C@@H](O)[C@H](O)[C@H]3O)ccc2Cl)cc1 [dapagliflozin-sarcosine cocrystal]",
    "display-unit": "mg/mL",
    "reported-measurement": 1.62
  }
]
